test system: Staphylococcus aureus; construct: ATCC 6538; assay: microbe, parasite or virus in culture; parameters: antibacterial 96-well microtiter plate assay, visible growth, 37 °C; details: 12 h
In this section, each of the compounds is paired with its reported MIC.

[in] # lookup: MIC of `CC1(C)S[C@@H]2[C@H](NC(=O)[C@H](N)c3ccccc3)C(=O)N2[C@H]1C(=O)O`
[out] < 1 µg/mL

[in] What value of measured MIC is listed for `CC1=C2O[C@@]3(C[C@]2(C)C(C)=C(C(=O)O)C1=O)[C@@H](C)CC[C@H]1C(C)(C)OC(=O)CC[C@@]13C` ?
[out] > 128 µg/mL

[in] Returns the measured MIC for the input compound. Input: COC(=O)C1C(=O)C(C)=C2OC3(CC2(C)C1C)C(C)C(O)CC1C(C)(C)OC(=O)CCC13C (stereo not shown)
[out] > 128 µg/mL

[in] Entry CC(C)C(C)C=CC(C)C1CCC2C3CC(O)C4=CC(=O)CCC4(C)C3CCC12C (stereo not drawn) [compound 13, ergosta-6α-hydroxy-4,22E-dien-3-one] has what MIC?
[out] > 128 µg/mL

###

Reported MIC values are given for each entry in this list.
test system: Staphylococcus aureus; construct: ATCC 6538; test: microbe, parasite or virus in culture; parameters: antibacterial 96-well microtiter plate assay, visible growth, 37 °C; settings: 12 h

# compound, endpoint, reading
data = [
    ("CC1=CC(=O)C(C)=C2O[C@@]3(C[C@]12C)[C@@H](C)CC[C@H]1C(C)(C)[C@@H](O)CC[C@@]13C [compound 5, chermesin A]", "MIC", "128 µg/mL"),
]

[in] Form field: reported MIC of C[C@@H]1Cc2c3c(cc(O)c2C(=O)O1)O[C@@]1(C)[C@@H](O)C[C@H]2C(C)(C)C(=O)C=C[C@]2(C)[C@@H]1C3 [compound 6, chrodrimanin E]
[out] > 128 µg/mL

[in] Give the measured MIC of C[C@@H]1Cc2c3c(cc(O)c2C(=O)O1)O[C@@]1(C)[C@@H](O)C[C@H]2C(C)(C)C(=O)CC[C@]2(C)[C@@H]1C3 [compound 7, chrodrimanin H] .
[out] > 128 µg/mL

[in] Any idea what its MIC is? The compound is CC(C)[C@@H](C)/C=C/[C@@H](C)[C@H]1CC[C@H]2C3=C(CC[C@]12C)[C@@]1(C)CCC(=O)C=C1C=C3 [compound 9, ergosta-4,6,8,22E-tetraene-3-one]
[out] > 128 µg/mL

[in] Query (compound): COC(=O)C1=C(C)C2(C)CC3(OC2=C(C)C1=O)C(C)CCC1C(C)(C)OC(=O)CCC13C (centres unmarked) [compound 3, asnovolin C 5′6′-dehydro hydrogen] ; field requested: MIC
[out] > 128 µg/mL

###

biological target: α-glucosidase; assay: α-glucosidase inhibition assay with p-NPG as substrate
endpoint: IC50 (µM)
Please respond with the number in µM and leave the unit unwritten.

[in] Item CC(C)[C@@H](C)/C=C/[C@@H](C)[C@H]1CC[C@@]2(O)C3=CC(=O)C4=CC(=O)CC[C@]4(C)[C@H]3CC[C@]12C [compound 10] has what recorded IC50?
[out] 111

###

test system: Bacillus subtilis; construct: ATCC 6633; assay: microbe, parasite or virus in culture; set-up: antibacterial 96-well microtiter plate assay, visible growth, 37 °C; details: 12 h
Each item that follows carries a reported MIC.

[in] What MIC appears in the records for this compound with Bacillus subtilis? `CC1=C2O[C@@]3(C[C@]2(C)C(C)=C(C(=O)O)C1=O)[C@@H](C)CC[C@H]1C(C)(C)OC(=O)CC[C@@]13C`
[out] > 128 µg/mL

[in] Which MIC is reported with Bacillus subtilis for this entry: `COC(=O)CC[C@@]1(C)[C@H](C(C)(C)O)CC[C@H](C)[C@@]12C[C@@]1(C)C(=C(C)C(=O)[C@@H](C(=O)OC)[C@@H]1C)O2` ?
[out] > 128 µg/mL

[in] Query the reported MIC for Bacillus subtilis; item: COC(=O)C1=C(C)C2(C)CC3(OC2=C(C)C1=O)C(C)CCC1C(C)(C)OC(=O)CCC13C (stereo not drawn) [compound 3, asnovolin C 5′6′-dehydro hydrogen]
[out] > 128 µg/mL
